- Measured Target: prothrombinase (FXa/FVa/PCPS), prothrombin activation (Homo sapiens, UniProt P00742+P12259)
- Construct: purchased Haematologic Technologies, Inc (FXa, FVa); Enzyme Research Laboratories (prothrombin)
- Sequence (P12259 29-737 limits assumed): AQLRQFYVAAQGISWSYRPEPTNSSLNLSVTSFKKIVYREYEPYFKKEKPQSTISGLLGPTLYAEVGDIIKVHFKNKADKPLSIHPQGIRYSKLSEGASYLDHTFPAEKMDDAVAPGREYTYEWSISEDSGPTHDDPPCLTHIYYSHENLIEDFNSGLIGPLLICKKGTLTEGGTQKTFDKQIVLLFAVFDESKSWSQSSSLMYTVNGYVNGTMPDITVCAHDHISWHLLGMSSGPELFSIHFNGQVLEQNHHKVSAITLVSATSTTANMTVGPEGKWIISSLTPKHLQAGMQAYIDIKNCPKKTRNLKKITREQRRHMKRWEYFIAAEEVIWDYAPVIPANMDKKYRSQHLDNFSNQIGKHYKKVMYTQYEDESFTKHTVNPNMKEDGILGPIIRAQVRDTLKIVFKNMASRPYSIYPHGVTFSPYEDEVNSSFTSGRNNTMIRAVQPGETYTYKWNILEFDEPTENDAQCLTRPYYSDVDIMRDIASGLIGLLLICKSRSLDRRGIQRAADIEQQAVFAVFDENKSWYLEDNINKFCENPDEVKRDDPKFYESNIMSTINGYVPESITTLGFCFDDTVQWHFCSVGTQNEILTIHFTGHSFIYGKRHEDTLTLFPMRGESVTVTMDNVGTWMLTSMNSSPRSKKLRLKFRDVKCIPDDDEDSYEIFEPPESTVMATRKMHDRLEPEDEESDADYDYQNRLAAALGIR
- Sequence (P12259 1574-2224 limits assumed): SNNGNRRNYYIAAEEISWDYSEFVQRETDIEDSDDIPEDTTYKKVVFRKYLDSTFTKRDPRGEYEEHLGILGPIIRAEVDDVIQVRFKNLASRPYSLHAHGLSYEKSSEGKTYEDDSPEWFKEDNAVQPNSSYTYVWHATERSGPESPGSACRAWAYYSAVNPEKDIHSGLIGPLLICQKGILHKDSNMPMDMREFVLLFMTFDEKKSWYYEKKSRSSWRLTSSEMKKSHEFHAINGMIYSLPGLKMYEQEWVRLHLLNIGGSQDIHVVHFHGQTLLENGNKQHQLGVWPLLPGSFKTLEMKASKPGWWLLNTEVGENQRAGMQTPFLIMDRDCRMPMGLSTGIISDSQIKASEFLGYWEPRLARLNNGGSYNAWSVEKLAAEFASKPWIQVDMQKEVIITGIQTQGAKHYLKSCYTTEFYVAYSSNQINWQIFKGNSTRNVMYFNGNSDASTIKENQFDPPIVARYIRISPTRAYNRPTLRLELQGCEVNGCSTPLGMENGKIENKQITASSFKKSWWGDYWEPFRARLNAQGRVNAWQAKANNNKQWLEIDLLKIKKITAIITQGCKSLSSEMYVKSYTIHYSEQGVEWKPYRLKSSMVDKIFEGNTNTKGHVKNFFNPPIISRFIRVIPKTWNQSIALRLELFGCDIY
- Sequence (P00742 41-179 partner limits assumed): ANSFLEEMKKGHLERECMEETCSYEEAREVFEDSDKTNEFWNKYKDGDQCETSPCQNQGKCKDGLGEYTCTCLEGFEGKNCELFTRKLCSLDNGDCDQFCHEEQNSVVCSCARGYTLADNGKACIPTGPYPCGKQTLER
- Sequence (P00742 235-488 partner limits assumed): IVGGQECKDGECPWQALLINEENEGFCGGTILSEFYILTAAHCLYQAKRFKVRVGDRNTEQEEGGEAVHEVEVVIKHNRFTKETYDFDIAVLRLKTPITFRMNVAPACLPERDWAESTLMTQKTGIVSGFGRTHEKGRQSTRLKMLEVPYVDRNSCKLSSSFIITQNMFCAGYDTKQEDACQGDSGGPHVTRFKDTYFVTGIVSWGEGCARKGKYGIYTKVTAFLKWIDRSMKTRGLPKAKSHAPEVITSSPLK
- Protocol: Relative rate of prothrombin activation with F2-derived peptides (screen, Fig. S1)
- Assay type: biochemical
- Condition Info: peptide 0, 50, 200, 500 μM; 300 nM prothrombin, 5 mM CaCl2, 3 μM DAPA, 50 μM PCPS, 5 nM FVa, 0.05 nM FXa
Test Readout: dose-dependent inhibition of prothrombin activation

Substance	Result
YVAGKPGDFGY [F2P6, F2-derived peptide, prothrombin residues 232-242]	did not
DLNYS*EEAVEEETG [F2P7, F2-derived peptide, prothrombin residues 244-257, cysteine changed to serine]	did not
